The reported measurements were obtained from patent US10112881B2.

Tested on: purified tyrosinase from mushroom
PROTOCOL_SUMMARY: In vitro tyrosinase assay (L-tyrosine to DOPAchrome, absorbance 490 nm); also: test concentration or dose not given here
Assay type: biochemical
CONDITION_CONTEXT: absorbance at 490 nm at 20', 60' and 120' of reaction
ENDPOINT: tyrosinase inhibition

STRUCTURE	MEASURED
O=c1cc(CO)occ1O	strong inhibition
NC(=S)Nc1ccccc1	strong inhibition
OC[C@H]1O[C@@H](Oc2ccc(O)cc2)[C@H](O)[C@@H](O)[C@@H]1O	strong inhibition
